test: in vivo; set-up: species or system mice; conditions: C57, mouse, iv, 0.037 MBq, total radioactivity, Liver uptake
ASSAY_ENDPOINT: tissue uptake at 4 h (%ID/g)

INSERT INTO measurements (compound, result_units, obs_value) VALUES
  ('CCCC[C@H](NC(=O)COCCOCCNC(=O)CN1CCN(CC(=O)O)CCN(CC(=O)O)CC1)C(=O)N[C@H]1CC(=O)NCCCC[C@@H](C(N)=O)NC(=O)[C@H](Cc2c[nH]c3ccccc23)NC(=O)[C@H](CCCNC(=N)N)NC(=O)[C@@H](Cc2ccccc2)NC(=O)[C@H](Cc2c[nH]cn2)NC1=O [^67Cu-NOTA-PEG2Nle-CycMSHhex, metal not drawn]', '%ID/g', 1.41);

---

Assay: in vivo
Design: species or system mice
Settings: C57, mouse, iv, 0.037 MBq, total radioactivity, Spleen uptake
Method: All animal studies were conducted in compliance with Institutional Animal Care and Use Committee approval. C57 mice were purchased from Charles River Laboratory (Wilmington, NC). […] The tumor uptake specificity of ^67Cu-NOTA-PEG2Nle-CycMSHhex and ^67Cu-NOTA-GGNle-CycMSHhex was determined by co-injecting 10 μg (6.07 nmol) of unlabeled NDP-MSH. Mice were sacrificed at 0.5, 2, 4, and 24 h post-injection, and tumors and organs of interest were harvested, weighed, and counted. […]
Positions of bridges follow the written chain, without caps; N, C: chain ends. Non-standard residues stand in square brackets, D forms with d. Residues, ends and D or L forms follow the SMILES beside them. *: point of attachment. NOTA = O=C(O)CN1CCN(CC(=O)O)CCN(CC(=O)*)CC1; Nle = CCCC[C@H](N)C(=O)O
ASSAY_ENDPOINT: tissue uptake at 4 h (%ID/g)

INSERT INTO assay_data (molecule, obs_value) VALUES
  ('CCCC[C@H](NC(=O)CNC(=O)CNC(=O)CN1CCN(CC(=O)O)CCN(CC(=O)O)CC1)C(=O)N[C@H]1CC(=O)NCCCC[C@@H](C(N)=O)NC(=O)[C@H](Cc2c[nH]c3ccccc23)NC(=O)[C@H](CCCNC(=N)N)NC(=O)[C@@H](Cc2ccccc2)NC(=O)[C@H](Cc2c[nH]cn2)NC1=O [^67Cu-NOTA-GGNle-CycMSHhex, ^67Cu-NOTA-GlyGlyNle-CycMSHhex, metal not drawn] ({NOTA}-GG[Nle]DH[dF]RWK-NH2; lactam 4-9)', 0.12);

---

assay: in vivo; design: species or system mice; settings: C57, mouse, iv, 0.037 MBq, total radioactivity, Skin uptake
ASSAY_ENDPOINT: tissue uptake at 4 h (%ID/g)

INSERT INTO results (compound, assay_endpoint, obs_value) VALUES
  ('CCCC[C@H](NC(=O)COCCOCCNC(=O)CN1CCN(CC(=O)O)CCN(CC(=O)O)CC1)C(=O)N[C@H]1CC(=O)NCCCC[C@@H](C(N)=O)NC(=O)[C@H](Cc2c[nH]c3ccccc23)NC(=O)[C@H](CCCNC(=N)N)NC(=O)[C@@H](Cc2ccccc2)NC(=O)[C@H](Cc2c[nH]cn2)NC1=O [^67Cu-NOTA-PEG2Nle-CycMSHhex, metal not drawn]', 'tissue uptake at 4 h', 0.18);

---

assay: in vivo; set-up: species or system mice; settings: C57, mouse, iv, 0.037 MBq, total radioactivity, Pancreas uptake
Positions of bridges follow the written chain, without caps; N, C: chain ends. Non-standard residues stand in square brackets, D forms with d. Residues, ends and D or L forms follow the SMILES beside them. *: point of attachment. NOTA = O=C(O)CN1CCN(CC(=O)O)CCN(CC(=O)*)CC1; Nle = CCCC[C@H](N)C(=O)O
ASSAY_ENDPOINT: tissue uptake at 24 h

INSERT INTO assay_data (compound, obs_value) VALUES
  ('CCCC[C@H](NC(=O)CNC(=O)CNC(=O)CN1CCN(CC(=O)O)CCN(CC(=O)O)CC1)C(=O)N[C@H]1CC(=O)NCCCC[C@@H](C(N)=O)NC(=O)[C@H](Cc2c[nH]c3ccccc23)NC(=O)[C@H](CCCNC(=N)N)NC(=O)[C@@H](Cc2ccccc2)NC(=O)[C@H](Cc2c[nH]cn2)NC1=O [^67Cu-NOTA-GGNle-CycMSHhex, ^67Cu-NOTA-GlyGlyNle-CycMSHhex, metal not drawn] ({NOTA}-GG[Nle]DH[dF]RWK-NH2; lactam 4-9)', '0.02 %ID/g');

---

Let's look at some compounds and their measured tissue to tissue ratio at 2 h.
assay: in vivo; set-up: species or system mice; conditions: C57, mouse, iv, total radioactivity, Uptake ratio Tumor/kidney
Positions of bridges follow the written chain, without caps; N, C: chain ends. Non-standard residues stand in square brackets, D forms with d. Residues, ends and D or L forms follow the SMILES beside them. *: point of attachment. NOTA = O=C(O)CN1CCN(CC(=O)O)CCN(CC(=O)*)CC1; Nle = CCCC[C@H](N)C(=O)O
ASSAY_ENDPOINT: tissue to tissue ratio at 2 h

INSERT INTO assay_data (compound, obs_value) VALUES
  ('CCCC[C@H](NC(=O)COCCOCCNC(=O)CN1CCN(CC(=O)O)CCN(CC(=O)O)CC1)C(=O)N[C@H]1CC(=O)NCCCC[C@@H](C(N)=O)NC(=O)[C@H](Cc2c[nH]c3ccccc23)NC(=O)[C@H](CCCNC(=N)N)NC(=O)[C@@H](Cc2ccccc2)NC(=O)[C@H](Cc2c[nH]cn2)NC1=O [^67Cu-NOTA-PEG2Nle-CycMSHhex, metal not drawn]', 0.34),
  ('CCCC[C@H](NC(=O)CNC(=O)CNC(=O)CN1CCN(CC(=O)O)CCN(CC(=O)O)CC1)C(=O)N[C@H]1CC(=O)NCCCC[C@@H](C(N)=O)NC(=O)[C@H](Cc2c[nH]c3ccccc23)NC(=O)[C@H](CCCNC(=N)N)NC(=O)[C@@H](Cc2ccccc2)NC(=O)[C@H](Cc2c[nH]cn2)NC1=O [^67Cu-NOTA-GGNle-CycMSHhex, ^67Cu-NOTA-GlyGlyNle-CycMSHhex, metal not drawn] ({NOTA}-GG[Nle]DH[dF]RWK-NH2; lactam 4-9)', 0.19);

---

// reported tissue uptake at 4 h for each item listed
Experiment: in vivo
Parameters: species or system mice
Conditions: C57, mouse, iv, 0.037 MBq, total radioactivity, Tumor uptake
Method: All animal studies were conducted in compliance with Institutional Animal Care and Use Committee approval. C57 mice were purchased from Charles River Laboratory (Wilmington, NC). […] The tumor uptake specificity of ^67Cu-NOTA-PEG2Nle-CycMSHhex and ^67Cu-NOTA-GGNle-CycMSHhex was determined by co-injecting 10 μg (6.07 nmol) of unlabeled NDP-MSH. Mice were sacrificed at 0.5, 2, 4, and 24 h post-injection, and tumors and organs of interest were harvested, weighed, and counted. […]
Positions of bridges follow the written chain, without caps; N, C: chain ends. Non-standard residues stand in square brackets, D forms with d. Residues, ends and D or L forms follow the SMILES beside them. *: point of attachment. NOTA = O=C(O)CN1CCN(CC(=O)O)CCN(CC(=O)*)CC1; Nle = CCCC[C@H](N)C(=O)O
ASSAY_ENDPOINT: tissue uptake at 4 h (%ID/g)

INSERT INTO results (compound, assay_endpoint, obs_value) VALUES
  ('CCCC[C@H](NC(=O)CNC(=O)CNC(=O)CN1CCN(CC(=O)O)CCN(CC(=O)O)CC1)C(=O)N[C@H]1CC(=O)NCCCC[C@@H](C(N)=O)NC(=O)[C@H](Cc2c[nH]c3ccccc23)NC(=O)[C@H](CCCNC(=N)N)NC(=O)[C@@H](Cc2ccccc2)NC(=O)[C@H](Cc2c[nH]cn2)NC1=O [^67Cu-NOTA-GGNle-CycMSHhex, ^67Cu-NOTA-GlyGlyNle-CycMSHhex, metal not drawn] ({NOTA}-GG[Nle]DH[dF]RWK-NH2; lactam 4-9)', 'tissue uptake at 4 h', 8.79),
  ('CCCC[C@H](NC(=O)COCCOCCNC(=O)CN1CCN(CC(=O)O)CCN(CC(=O)O)CC1)C(=O)N[C@H]1CC(=O)NCCCC[C@@H](C(N)=O)NC(=O)[C@H](Cc2c[nH]c3ccccc23)NC(=O)[C@H](CCCNC(=N)N)NC(=O)[C@@H](Cc2ccccc2)NC(=O)[C@H](Cc2c[nH]cn2)NC1=O [^67Cu-NOTA-PEG2Nle-CycMSHhex, metal not drawn]', 'tissue uptake at 4 h', 24.1);

---

Quick list: tissue uptake at 2 h per entry.
experiment: in vivo; set-up: species or system mice; conditions: C57, mouse, iv, 0.037 MBq, total radioactivity, Kidneys uptake (renal uptake)
Positions of bridges follow the written chain, without caps; N, C: chain ends. Non-standard residues stand in square brackets, D forms with d. Residues, ends and D or L forms follow the SMILES beside them. *: point of attachment. NOTA = O=C(O)CN1CCN(CC(=O)O)CCN(CC(=O)*)CC1; Nle = CCCC[C@H](N)C(=O)O
ASSAY_ENDPOINT: tissue uptake at 2 h (%ID/g)

INSERT INTO assay_data (molecule, result_units, obs_value) VALUES
  ('CCCC[C@H](NC(=O)COCCOCCNC(=O)CN1CCN(CC(=O)O)CCN(CC(=O)O)CC1)C(=O)N[C@H]1CC(=O)NCCCC[C@@H](C(N)=O)NC(=O)[C@H](Cc2c[nH]c3ccccc23)NC(=O)[C@H](CCCNC(=N)N)NC(=O)[C@@H](Cc2ccccc2)NC(=O)[C@H](Cc2c[nH]cn2)NC1=O [^67Cu-NOTA-PEG2Nle-CycMSHhex, metal not drawn]', '%ID/g', 6.34),
  ('CCCC[C@H](NC(=O)CNC(=O)CNC(=O)CN1CCN(CC(=O)O)CCN(CC(=O)O)CC1)C(=O)N[C@H]1CC(=O)NCCCC[C@@H](C(N)=O)NC(=O)[C@H](Cc2c[nH]c3ccccc23)NC(=O)[C@H](CCCNC(=N)N)NC(=O)[C@@H](Cc2ccccc2)NC(=O)[C@H](Cc2c[nH]cn2)NC1=O [^67Cu-NOTA-GGNle-CycMSHhex, ^67Cu-NOTA-GlyGlyNle-CycMSHhex, metal not drawn] ({NOTA}-GG[Nle]DH[dF]RWK-NH2; lactam 4-9)', '%ID/g', 5.08);
